For each record, write down the corresponding inhibition.
- EXPERIMENTAL_SYSTEM: Serine/threonine-protein kinase LMTK3 (Homo sapiens)
- Sequence (whole entry): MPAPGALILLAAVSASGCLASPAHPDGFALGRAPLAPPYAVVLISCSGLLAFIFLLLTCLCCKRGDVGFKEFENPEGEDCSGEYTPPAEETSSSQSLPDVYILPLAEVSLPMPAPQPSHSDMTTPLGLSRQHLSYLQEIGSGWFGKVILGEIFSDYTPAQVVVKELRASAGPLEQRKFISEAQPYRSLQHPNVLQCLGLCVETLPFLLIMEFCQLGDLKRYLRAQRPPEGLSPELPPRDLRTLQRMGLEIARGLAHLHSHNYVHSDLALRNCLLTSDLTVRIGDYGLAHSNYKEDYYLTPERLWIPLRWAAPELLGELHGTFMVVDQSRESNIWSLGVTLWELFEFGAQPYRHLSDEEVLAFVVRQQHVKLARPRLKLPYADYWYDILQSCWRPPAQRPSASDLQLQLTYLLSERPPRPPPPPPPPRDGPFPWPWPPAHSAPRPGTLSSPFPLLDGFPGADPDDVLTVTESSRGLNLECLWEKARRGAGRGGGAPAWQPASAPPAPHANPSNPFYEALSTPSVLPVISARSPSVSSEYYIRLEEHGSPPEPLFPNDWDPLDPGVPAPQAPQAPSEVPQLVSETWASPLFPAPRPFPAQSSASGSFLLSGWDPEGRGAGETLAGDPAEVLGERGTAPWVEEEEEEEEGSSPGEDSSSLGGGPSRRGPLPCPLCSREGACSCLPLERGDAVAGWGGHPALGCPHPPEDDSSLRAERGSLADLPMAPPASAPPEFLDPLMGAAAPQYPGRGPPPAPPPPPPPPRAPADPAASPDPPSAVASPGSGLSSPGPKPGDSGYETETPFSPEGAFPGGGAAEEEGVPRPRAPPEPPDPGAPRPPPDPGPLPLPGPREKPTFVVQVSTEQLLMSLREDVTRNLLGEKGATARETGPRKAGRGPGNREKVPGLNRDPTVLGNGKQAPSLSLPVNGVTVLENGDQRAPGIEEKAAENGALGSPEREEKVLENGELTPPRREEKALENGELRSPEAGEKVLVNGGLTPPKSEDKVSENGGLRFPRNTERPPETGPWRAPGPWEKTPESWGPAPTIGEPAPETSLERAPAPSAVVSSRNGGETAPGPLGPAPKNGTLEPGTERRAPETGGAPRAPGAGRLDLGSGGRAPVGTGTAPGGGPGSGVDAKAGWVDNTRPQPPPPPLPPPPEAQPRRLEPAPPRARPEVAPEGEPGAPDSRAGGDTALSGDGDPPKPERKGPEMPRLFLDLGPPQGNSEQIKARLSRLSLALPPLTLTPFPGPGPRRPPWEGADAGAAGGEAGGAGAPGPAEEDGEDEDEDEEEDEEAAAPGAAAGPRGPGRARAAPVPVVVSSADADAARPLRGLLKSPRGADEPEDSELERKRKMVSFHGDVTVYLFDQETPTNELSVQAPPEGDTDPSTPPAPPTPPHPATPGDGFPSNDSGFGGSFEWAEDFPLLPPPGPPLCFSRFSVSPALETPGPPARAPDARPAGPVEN
- ASSAY_PROCEDURE: Inhibition of N-terminal GST tag LMTK3 kinase domain (133 to 415 amino acids) (unknown origin) expressed in insect cells incubated for 120 mins by […] fluorescent detection based CisBio KinEASE STK-S1 kit based assay relative to untreated control
Respond numerically; units are % and should not be typed.

Task: Answer with reported inhibition of COC(=O)[C@@]1(O)C[C@H]2O[C@]1(C)n1c3ccccc3c3c4c(c5c6ccccc6n2c5c31)C(=O)NC4
Output: 98.9

Task: Answer with reported inhibition of CCCCCCOC(=O)[C@]1(O)C[C@H]2O[C@]1(C)n1c3ccccc3c3c4c(c5c6ccccc6n2c5c31)C(=O)NC4
Output: 98.7

Task: Answer with reported inhibition of CN[C@@H]1C[C@H]2O[C@@](C)([C@@H]1OC)n1c3ccccc3c3c4c(c5c6ccccc6n2c5c31)C(=O)NC4
Output: 109

Task: Answer with reported inhibition of CN(C)CCCn1cc(C2=C(c3c[nH]c4ccccc34)C(=O)NC2=O)c2ccccc21
Output: 108
